- Test system: U2OS
- ASSAY: Multiplex assay against U2OS
- Assay type: toxicity, cell-based
- CONDITION PARAMETERS: human, 48 h, 10 µM, compound concentration 10 uM
Non-standard residues stand in square brackets, D forms with d. Residues, ends and D or L forms follow the SMILES beside them.
Measured Population Hoechst High Intensity Objects (%), listed per entry.
QUANTITY KIND: Population Hoechst High Intensity Objects (%)

1. CC(C)C[C@@H]1NC(=O)[C@@H](C(C)C)NC(=O)[C@@H]2CCCN2C(=O)[C@@H](CC(=O)O)NC(=O)[C@@H](Cc2c[nH]c3ccccc23)NC1=O [BQ-123] (cyclo(L[dW][dD]P[dV])) ... 1
2. Cc1noc(C)c1-c1cnc2c(-c3ccc(C(=O)O)cc3)cn([C@@H](C)c3ccccn3)c2c1 ... 0
3. Cc1cc(-c2ccc3c(c2)CC[C@H]3N2CC3(CCN(C(=O)Cc4cn5cc(C)sc5n4)CC3)C2)ncn1 ... 3
4. CC(C)CC(=O)Nc1cncc(-c2ccc3[nH]nc(-c4nc5c(-c6cccc(F)c6)cncc5[nH]4)c3c2)c1 ... 0
5. CNc1nc(NCc2ncccn2)c2c(-c3ccc4ncccc4c3)c[nH]c2n1 ... 0
6. CN(C)CCOc1ccc(/C(=C(/CCCO)c2ccccc2)c2ccc(O)cc2)cc1 ... 0
7. O=C1COc2nccc(-c3ccccc3F)c2CN1Cc1cc(C(F)(F)F)cc(C(F)(F)F)c1 ... 4
8. O=C1c2c(Br)c(Br)c(Br)c(Br)c2C(=O)N1c1ncc[nH]1 ... 0
9. Clc1ccccc1C(c1ccccc1)(c1ccccc1)n1cccn1 ... 0
10. N[C@@]1(C(=O)O)CO[C@H]2[C@H](C(=O)O)[C@H]21 ... 2

---

Measured Population Normal (%), listed per entry.
- System: HEK-293T
- ASSAY: Multiplex assay against HEK293T
- Format: toxicity, cell-based
- CONDITION PARAMETERS: human, 24 h, 1 µM, compound concentration 1 uM
QUANTITY KIND: Population Normal (%)

1) COc1ccc(Cl)cc1[C@]1(F)C(=O)Nc2cc(C(F)(F)F)ccc21 ... 100
2) COCCNc1cc(NC(=O)N2CCCc3cc(CN4CCOCC4=O)c(C=O)nc32)ncc1C#N ... 100
3) CC(C)(O)C(=O)N1CCN(c2ccc(C(F)(F)F)c(C3=C(c4c[nH]c5ccccc45)C(=O)NC3=O)c2)CC1 ... 94
4) FC(F)(F)c1ccccc1-c1cc(C(F)(F)F)c2[nH]c(C3=NOC4(CCCCC4)C3)nc2c1 ... 100
5) CCCC(CCC)C(=O)O ... 95
6) CC(C)C[C@H](NC(=O)c1cc2ccccc2s1)C(=O)N1CCN(C(=O)[C@H](CO)NS(=O)(=O)c2ccc(Cl)cc2Cl)CC1 ... 100
7) Cl.Clc1cc2cc(c1)-c1cnn3ccc(nc13)NCCOCCO2 ... 100

---

- System: U2OS
- ASSAY: Multiplex assay against U2OS
- Type: toxicity, cell-based
- CONDITION PARAMETERS: human, 12 h, 1 µM, compound concentration 1 uM
Measured Population Normal (%), listed per entry.
QUANTITY KIND: Population Normal (%)

1. N[C@@]1(C(=O)O)CO[C@H]2[C@H](C(=O)O)[C@H]21 [LY-379268] ... 99
2. CCn1cnc2c(-c3ccc(F)c(-c4ccc(S(=O)(=O)CC)cc4OC)c3)cnnc21 [DARIGABAT] ... 100
3. O=C(NCCO)c1cccc(-c2cc(Nc3ccc(OC(F)(F)F)cc3)ncn2)c1 ... 98
4. COc1ccc(Cl)cc1[C@]1(F)C(=O)Nc2cc(C(F)(F)F)ccc21 [FLINDOKALNER] ... 100

---

- Test system: Fibroblast
- ASSAY: Multiplex assay against human fibroblast
- Assay type: toxicity, cell-based
- CONDITION PARAMETERS: 12 h, 10 µM, compound concentration 10 uM
QUANTITY KIND: Population Hoechst High Intensity Objects (%)

1. COc1ccc(-n2c(C)c([N+](=O)[O-])c3ccc(O)cc32)cc1 ... 0
2. COc1ccccc1N1CCN(C[C@@H](C(=O)NC(C)(C)C)c2ccccc2)CC1.Cl.Cl ... 5
3. Clc1ccccc1C(c1ccccc1)(c1ccccc1)n1cccn1 ... 0
4. O=C(Nc1ccccc1Br)N[C@@H]1CCN(c2ccc(C(F)(F)F)cn2)C1 ... 0
5. CCn1cnc2c(-c3ccc(F)c(-c4ccc(S(=O)(=O)CC)cc4OC)c3)cnnc21 ... 0

---

- System: Fibroblast
- ASSAY: Multiplex assay against human fibroblast
- Assay type: toxicity, cell-based
- CONDITION PARAMETERS: 48 h, 10 µM, compound concentration 10 uM
QUANTITY KIND: Population Hoechst High Intensity Objects (%)

1. CC(C)C[C@H](NC(=O)c1cc2ccccc2s1)C(=O)N1CCN(C(=O)[C@H](CO)NS(=O)(=O)c2ccc(Cl)cc2Cl)CC1 ... 0%
2. COc1ccc(-n2c(C)c([N+](=O)[O-])c3ccc(O)cc32)cc1 ... 0%
3. Cl.Clc1cc2cc(c1)-c1cnn3ccc(nc13)NCCOCCO2 ... 0%
4. Cc1sc2c(c1C)C(c1ccc(Cl)cc1)=N[C@H](CC(=O)OC(C)(C)C)c1nnc(C)n1-2 ... 1%
5. CC(C)CC(=O)Nc1cncc(-c2ccc3[nH]nc(-c4nc5c(-c6cccc(F)c6)cncc5[nH]4)c3c2)c1 [LORECIVIVINT] ... 0%
6. Cl.Clc1ccc2nsnc2c1NC1=NCCN1 [TIZANIDINE HYDROCHLORIDE] ... 2%
7. Clc1ccccc1C(c1ccccc1)(c1ccccc1)n1cccn1 ... 0%
8. CNc1nc(NCc2ncccn2)c2c(-c3ccc4ncccc4c3)c[nH]c2n1 ... 0%
9. Cl.c1ccc2c(c1)CCC[C@H]2Nc1nc2ccccc2[nH]1 ... 0%
10. O=C1c2c(Br)c(Br)c(Br)c(Br)c2C(=O)N1c1ncc[nH]1 ... 0%
11. FC(F)(F)c1ccccc1-c1cc(C(F)(F)F)c2[nH]c(C3=NOC4(CCCCC4)C3)nc2c1 ... 0%
12. COCCNc1nc2ccc(C#CC3(O)CCCCC3)cc2n1-c1ccnc(N)n1 ... 0%
13. O=C(Nc1cc(C(F)(F)F)cc(C(F)(F)F)c1)c1cc(Cl)ccc1O [IMD-0354] ... 0%
14. CN(C)CCOc1ccc(/C(=C(/CCCO)c2ccccc2)c2ccc(O)cc2)cc1 ... 0%
15. O=c1ccc2ccc(OCCCCN3CCN(c4cccc5sccc45)CC3)cc2[nH]1 [BREXPIPRAZOLE] ... 34%
16. Cc1noc(C)c1-c1cnc2c(-c3ccc(C(=O)O)cc3)cn([C@@H](C)c3ccccn3)c2c1 [PLX-51107] ... 0%
17. COCCNc1cc(NC(=O)N2CCCc3cc(CN4CCOCC4=O)c(C=O)nc32)ncc1C#N ... 0%
18. COc1ccc(Cl)cc1[C@]1(F)C(=O)Nc2cc(C(F)(F)F)ccc21 [FLINDOKALNER] ... 0%
19. CN(C)Cc1cccc(NC(=C2C(=O)Nc3cc(C(N)=O)ccc32)c2ccccc2)c1 ... 0%
20. O=C(Nc1ccccc1Br)N[C@@H]1CCN(c2ccc(C(F)(F)F)cn2)C1 [SB-705498] ... 0%
21. CCn1cnc2c(-c3ccc(F)c(-c4ccc(S(=O)(=O)CC)cc4OC)c3)cnnc21 [DARIGABAT] ... 0%

---

- Tested on: HEK-293T
- ASSAY: Multiplex assay against HEK293T
- Assay type: toxicity, cell-based
- CONDITION PARAMETERS: human, 48 h, 1 µM, compound concentration 1 uM
Measured Population Normal (%), listed per entry.
QUANTITY KIND: Population Normal (%)

1. CC(C)COc1ccc(CNC(=O)N(Cc2ccc(F)cc2)C2CCN(C)CC2)cc1 ... 94%
2. C[C@H](N)COC(=O)[C@@H](CCCCN)NC(=O)Cc1c(-c2ccc3ccccc3c2)[nH]c2c1ccc1ccccc12 ... 95%
3. COCCNc1cc(NC(=O)N2CCCc3cc(CN4CCOCC4=O)c(C=O)nc32)ncc1C#N ... 100%
4. O=C(Nc1cc(C(F)(F)F)cc(C(F)(F)F)c1)c1cc(Cl)ccc1O ... 100%
5. O=C(Nc1ccccc1Br)N[C@@H]1CCN(c2ccc(C(F)(F)F)cn2)C1 ... 100%
6. CCOc1ccccc1C(=O)NCC1(N2CCN(CC)CC2)CCCCC1 ... 100%
7. FC(F)(F)c1ccccc1-c1cc(C(F)(F)F)c2[nH]c(C3=NOC4(CCCCC4)C3)nc2c1 ... 100%
8. CCNC1(C(N)=O)CCN(c2ncnc3c2nc(-c2ccccc2Cl)n3-c2ccc(Cl)cc2)CC1 ... 95%
9. CCn1cnc2c(-c3ccc(F)c(-c4ccc(S(=O)(=O)CC)cc4OC)c3)cnnc21 ... 100%
10. Cc1onc(-c2ccccc2Cl)c1C(=O)N(C)c1ccc(Cl)cc1 ... 97%
11. CN(C)Cc1cccc(NC(=C2C(=O)Nc3cc(C(N)=O)ccc32)c2ccccc2)c1 ... 100%
12. COc1ccc(Cl)cc1[C@]1(F)C(=O)Nc2cc(C(F)(F)F)ccc21 ... 100%
